- Test System: T1, HLA-B*2705 (human, UniProt P01889 25-302 at identity 0.93))
- T1 construct: MHC class I molecule assembled with candidate peptides in the REVEAL assay (ProImmune)
- T1 MHC heavy: not shown
- Test Name: REVEAL MHC-peptide binding assay, incorporation into HLA-B*2705
Listed next: entries and their corresponding % Positive Control (REVEAL binding score).
Experimental Endpoint: % Positive Control (REVEAL binding score)

{"Binder": "QLEDIRLDG (Opticin nonamer) [Peptide I.D. 12 QLEDIRLDG]", "Experimental Result": "0 % of positive control"}
{"Binder": "DEYFKRFNA [Peptide I.D. 14 DEYFKRFNA]", "Experimental Result": "0.06 % of positive control"}
{"Binder": "RQLEDIRLD [Peptide I.D. 11 RQLEDIRLD]", "Experimental Result": "0.5 % of positive control"}
{"Binder": "NLRSIDLQD [Peptide I.D. 28 NLRSIDLQD]", "Experimental Result": "0.17 % of positive control"}
{"Binder": "NALQYLRLS [Peptide I.D. 21 NALQYLRLS]", "Experimental Result": "0.11 % of positive control"}
{"Binder": "FNALQYLRL [Peptide I.D. 20 FNALQYLRL]", "Experimental Result": "1.81 % of positive control"}
{"Binder": "DLQDFFSSL [Peptide I.D. 33 DLQDFFSSL]", "Experimental Result": "0.35 % of positive control"}
{"Binder": "LRSIDLQDF [Peptide I.D. 29 LRSIDLQDF]", "Experimental Result": "0.08 % of positive control"}
{"Binder": "LNLRSIDLQ [Peptide I.D. 27 LNLRSIDLQ]", "Experimental Result": "0.11 % of positive control"}
{"Binder": "LEDIRLDGN [Peptide I.D. 13 LEDIRLDGN]", "Experimental Result": "2.17 % of positive control"}
